# Tested on: Escherichia coli
# assayNotes: Relative sensitizing activity against Escherichia coli was determined as a percent of pPMBN (50 ug/mL) as a control
# Assay type: functional
Known Activity of a selection of compounds
testReadout: Activity (%)

compound | measured
CC(C)C[C@@H]1NC(=O)[C@@H](Cc2ccccc2)NC(=O)[C@H](CCCCN)NC(=O)[C@@H](NC(=O)[C@H](CCCCN)NC(=O)[C@@H](N)[C@@H](C)O)CCNC(=O)[C@H]([C@@H](C)O)NC(=O)[C@H](CCCCN)NC(=O)[C@H](CCCCN)NC1=O | 5
CC(C)C[C@@H]1NC(=O)[C@@H](Cc2ccccc2)NC(=O)[C@H](CCN)NC(=O)[C@@H](NC(=O)[C@H](CCN)NC(=O)[C@@H](N)[C@@H](C)O)CCNC(=O)[C@H]([C@@H](C)O)NC(=O)[C@H](CCN)NC(=O)[C@H](CCN)NC1=O (stereo in doubt; form 1) | 100
CC(C)C[C@@H]1NC(=O)[C@@H](Cc2ccccc2)NC(=O)[C@H](CCCN)NC(=O)[C@@H](NC(=O)[C@H](CCCN)NC(=O)[C@@H](N)[C@@H](C)O)CCCNC(=O)[C@H]([C@@H](C)O)NC(=O)[C@H](CCCN)NC(=O)[C@H](CCCN)NC1=O | 2
CC(C)C[C@@H]1NC(=O)[C@@H](Cc2ccccc2)NC(=O)[C@H](CCN)NC(=O)[C@H](CCN)NC(=O)[C@@H](NC(=O)[C@@H](N)[C@@H](C)O)CCNC(=O)[C@H]([C@@H](C)O)NC(=O)[C@H](CCN)NC(=O)[C@H](CCN)NC1=O | 7
CC(C)C[C@@H]1NC(=O)[C@@H](Cc2ccccc2)NC(=O)[C@H](CCN)NC(=O)[C@@H](NC(=O)[C@H](CCN)NC(=O)[C@@H](N)[C@@H](C)O)CCNC(=O)[C@H]([C@@H](C)O)NC(=O)[C@H](CCN)NC(=O)[C@H](CCN)NC1=O (stereo in doubt; form 2) | 96

====

Known Activity of a selection of molecules
# System: Escherichia coli
# assayNotes: Relative sensitizing activity against Escherichia coli was determined as a percent of pPMBN (50 ug/mL) as a control
# Type: functional

smilesData | Activity (%)
CC(C)C[C@@H]1NC(=O)[C@@H](Cc2ccccc2)NC(=O)[C@H](CCN)NC(=O)[C@@H](NC(=O)[C@H](CCN)NC(=O)[C@@H](N)[C@@H](C)O)CCCCNC(=O)[C@H]([C@@H](C)O)NC(=O)[C@H](CCN)NC(=O)[C@H](CCN)NC1=O | 17
CC(C)C[C@@H]1NC(=O)[C@@H](Cc2ccccc2)NC(=O)[C@H](CCCCN)NC(=O)[C@@H](NC(=O)[C@H](CCCCN)NC(=O)[C@@H](N)[C@@H](C)O)CCNC(=O)[C@H]([C@@H](C)O)NC(=O)[C@H](CCN)NC(=O)[C@H](CCN)NC1=O | 9
CC(C)C[C@@H]1NC(=O)[C@@H](Cc2ccccc2)NC(=O)[C@H](CCCCN)NC(=O)[C@@H](NC(=O)[C@H](CCCCN)NC(=O)[C@@H](N)[C@@H](C)O)CCCCNC(=O)[C@H]([C@@H](C)O)NC(=O)[C@H](CCCCN)NC(=O)[C@H](CCCCN)NC1=O | 4
CC(C)C[C@@H]1NC(=O)[C@H](Cc2ccccc2)NC(=O)[C@H](CCN)NC(=O)[C@@H](NC(=O)[C@H](CCN)NC(=O)[C@@H](N)[C@@H](C)O)CCNC(=O)[C@H]([C@@H](C)O)NC(=O)[C@H](CCN)NC(=O)[C@H](CCN)NC1=O | 5
